B1: Androgen receptor, residues 557 to 632; numbered along this chain, P10275 (parent)
chain: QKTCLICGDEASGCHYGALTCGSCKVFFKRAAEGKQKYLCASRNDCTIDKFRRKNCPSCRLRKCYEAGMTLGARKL

# Variants of: B1
# PROTOCOL_TEXT: abundance fitness (aPCA) (normalised: wild type 0, dead -1); higher = more abundant; growth selection in yeast, the domain comes from the species named
# CONDITION_CONTEXT: Homo sapiens
QUANTITY_MEASURED: abundance fitness
Respond with the number and no other words.

I am curious: what abundance fitness value has been reported for D45E ?
-0.037

Moving on to C21M
-0.953

Moving on to Q1H
-0.504

Moving on to D45A
-0.094

Moving on to G8L
-0.146

Moving on to K63D
-0.283

Moving on to Y65A
-0.158

Moving on to K37M
-0.131

Moving on to S12M
-0.026

Moving on to Q1P
-0.439

Moving on to I48C
-0.585

Moving on to R74F
-0.165

Moving on to C24Q
-0.932

Moving on to A41W
-0.187

Moving on to T3R
-0.083

Moving on to C64M
-0.125

Moving on to N55H
-0.011

Moving on to K50T
-0.068

Moving on to V26K
0.058

Moving on to N44R
-0.258

Moving on to T3W
-0.115

Moving on to C24Y
-1.08

Moving on to L5S
-0.013

Moving on to K25I
-0.24

Moving on to Q36H
-0.01

Moving on to T47S
-0.015

Moving on to Y65V
0.02

Moving on to G22H
-0.152

Moving on to N55D
0.032

Moving on to T20A
-0.041

Moving on to L5A
-0.109

Moving on to C4H
-0.851

Moving on to G22D
-0.033

Moving on to R74S
-0.032

Moving on to Q36K
0.013

Moving on to A31N
-0.144

Moving on to L5Y
-0.162

Moving on to K35H
-0.044

Moving on to R52Q
-0.063

Moving on to S23W
-0.137

Moving on to N55E
-0.407

Moving on to A73C
-0.297

Moving on to Q36M
-0.084

Moving on to R52F
-0.164

Moving on to I48M
-0.154

Moving on to K35C
-0.007

Moving on to C40S
-0.713

Moving on to C56N
-0.968

Moving on to D49W
-0.402

Moving on to Y65L
-0.081

Moving on to Q1F
0.16

Moving on to K29E
0.202

Moving on to Y16C
-0.566

Moving on to C24M
-0.964

Moving on to D9L
-0.626

Moving on to C46R
-0.892

Moving on to E33I
0.03

Moving on to A18E
-0.617

Moving on to R52P
0.004

Moving on to K29P
-0.377

Moving on to K35S
-0.031

Moving on to K50W
-0.227

Moving on to K35A
-0.093

Moving on to T20H
-0.299

Moving on to K63C
-0.143

Moving on to P57C
0.088

Moving on to C7G
-0.874

Moving on to K63G
-0.4

Moving on to Y38H
-0.231

Moving on to R30W
-0.114

Moving on to S12F
-0.389

Moving on to S23L
-0.283

Moving on to N44H
-0.229

Moving on to R74T
0.088

Moving on to L19E
0.034

Moving on to Y38A
-0.057

Moving on to N44K
-0.177

Moving on to A41D
0.041

Moving on to T3C
0.014

Moving on to Q36C
-0.2

Moving on to F27Y
-0.598

Moving on to I48E
-0.348

Moving on to G22M
-0.163

Moving on to G13M
-0.163

Moving on to A31S
-0.024

Moving on to K37A
0.038

Moving on to K25C
0.012

Moving on to R52W
-0.311

Moving on to C4M
-0.679

Moving on to K50M
-0.195

Moving on to C21L
-0.993
